system under test: Voltage-dependent L-type calcium channel subunit alpha-1C (Oryctolagus cuniculus, UniProt P15381)
Sequence (P15381 whole entry): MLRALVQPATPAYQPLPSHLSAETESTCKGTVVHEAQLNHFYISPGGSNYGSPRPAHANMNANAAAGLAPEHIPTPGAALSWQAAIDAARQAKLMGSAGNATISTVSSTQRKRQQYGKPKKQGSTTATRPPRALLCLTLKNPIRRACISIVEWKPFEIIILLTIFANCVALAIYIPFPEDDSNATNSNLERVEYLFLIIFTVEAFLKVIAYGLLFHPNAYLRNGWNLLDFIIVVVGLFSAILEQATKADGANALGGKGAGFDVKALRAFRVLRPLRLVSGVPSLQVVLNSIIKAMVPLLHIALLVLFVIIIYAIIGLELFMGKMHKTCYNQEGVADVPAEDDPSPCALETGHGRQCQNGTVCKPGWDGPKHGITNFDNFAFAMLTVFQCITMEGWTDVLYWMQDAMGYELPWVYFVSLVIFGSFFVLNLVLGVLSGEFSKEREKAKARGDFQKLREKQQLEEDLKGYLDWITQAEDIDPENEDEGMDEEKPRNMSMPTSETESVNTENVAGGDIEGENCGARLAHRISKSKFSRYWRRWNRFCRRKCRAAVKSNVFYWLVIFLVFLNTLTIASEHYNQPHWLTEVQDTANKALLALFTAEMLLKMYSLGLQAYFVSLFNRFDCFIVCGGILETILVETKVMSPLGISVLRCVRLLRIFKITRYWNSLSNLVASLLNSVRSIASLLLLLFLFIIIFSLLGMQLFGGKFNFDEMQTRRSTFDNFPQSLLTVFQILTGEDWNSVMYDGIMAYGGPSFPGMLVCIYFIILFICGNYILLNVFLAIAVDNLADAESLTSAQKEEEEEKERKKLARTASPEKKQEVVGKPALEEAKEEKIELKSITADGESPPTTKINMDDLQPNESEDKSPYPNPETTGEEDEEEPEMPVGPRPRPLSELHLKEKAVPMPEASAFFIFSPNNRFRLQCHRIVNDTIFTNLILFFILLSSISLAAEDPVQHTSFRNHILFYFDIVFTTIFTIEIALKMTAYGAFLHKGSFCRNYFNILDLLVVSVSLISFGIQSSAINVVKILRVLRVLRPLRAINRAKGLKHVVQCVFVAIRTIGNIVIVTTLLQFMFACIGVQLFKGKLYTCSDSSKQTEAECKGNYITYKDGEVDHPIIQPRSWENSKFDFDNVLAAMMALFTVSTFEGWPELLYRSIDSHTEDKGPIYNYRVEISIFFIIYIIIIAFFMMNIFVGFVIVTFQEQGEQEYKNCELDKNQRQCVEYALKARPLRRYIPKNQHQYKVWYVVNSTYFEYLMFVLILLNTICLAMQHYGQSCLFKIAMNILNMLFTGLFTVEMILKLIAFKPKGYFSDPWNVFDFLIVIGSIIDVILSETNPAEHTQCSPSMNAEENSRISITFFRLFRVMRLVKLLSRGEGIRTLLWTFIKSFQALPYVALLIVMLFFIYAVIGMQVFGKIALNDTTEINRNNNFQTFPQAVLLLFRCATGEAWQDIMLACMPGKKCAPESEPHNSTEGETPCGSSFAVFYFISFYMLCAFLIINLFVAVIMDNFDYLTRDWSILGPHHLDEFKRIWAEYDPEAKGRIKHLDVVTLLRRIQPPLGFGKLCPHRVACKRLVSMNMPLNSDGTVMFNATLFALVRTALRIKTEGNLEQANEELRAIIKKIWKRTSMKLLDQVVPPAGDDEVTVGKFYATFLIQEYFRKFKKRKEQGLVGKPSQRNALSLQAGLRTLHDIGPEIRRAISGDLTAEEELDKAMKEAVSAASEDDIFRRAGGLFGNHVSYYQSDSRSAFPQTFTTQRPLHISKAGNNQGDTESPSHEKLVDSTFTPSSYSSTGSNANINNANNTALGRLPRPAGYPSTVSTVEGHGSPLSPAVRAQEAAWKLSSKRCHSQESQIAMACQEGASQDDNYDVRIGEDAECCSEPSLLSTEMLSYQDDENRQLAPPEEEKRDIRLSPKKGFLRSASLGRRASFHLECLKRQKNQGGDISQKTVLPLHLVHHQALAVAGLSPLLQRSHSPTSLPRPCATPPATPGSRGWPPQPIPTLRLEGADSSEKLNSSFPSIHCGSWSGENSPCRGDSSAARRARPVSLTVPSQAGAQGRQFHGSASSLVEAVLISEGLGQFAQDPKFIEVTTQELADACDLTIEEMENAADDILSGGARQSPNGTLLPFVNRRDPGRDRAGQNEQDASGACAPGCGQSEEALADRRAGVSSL
assay info: Antagonist activity at rabbit Cav1.2 expressed in HEK293 cells assessed as inhibition of voltage pulse-induced calcium current by FLIPR calcium 4 assay
pIC50: −log10 of the molar value.
Given measured pIC50, output TRUE if it is greater than or equal to 7 and FALSE if not.

In [3]: df
Out[3]:
                                   compound  group
0  CCOC(=O)C1=C(C)NC(COC)=C(C(=O)OC)C1c1cccc([N+](=O)[O-])c1 (stereo not given)   TRUE
1  COC(=O)C1=C(C)NC(C)=C(C(=O)OCc2ccccc2)C1c1cccc([N+](=O)[O-])c1 (stereo not given)   TRUE
2  CCOC(=O)C1=C(C)NC(C)=C(C(=O)OCC)C1c1ccccc1SC   TRUE
3  CCCCCOC(=O)C1=C(C)NC(C)=C(C(=O)OCC)C1c1cccc([N+](=O)[O-])c1 (stereo not given)   TRUE
4  CCOC(=O)C1=C(C)NC(C)=C(C(C)=O)C1c1ccc2ccccc2c1 (stereo not given)  FALSE
